Assay target: fusion protein PRK
Sequence (chain, as listed by the source): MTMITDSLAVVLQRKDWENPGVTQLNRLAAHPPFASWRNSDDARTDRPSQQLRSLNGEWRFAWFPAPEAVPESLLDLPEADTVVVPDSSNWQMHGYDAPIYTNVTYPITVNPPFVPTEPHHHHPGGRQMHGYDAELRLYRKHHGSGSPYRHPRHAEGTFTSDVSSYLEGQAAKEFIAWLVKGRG
Please provide measured relative cleavage efficiency for the entries that follow.

// fetch relative cleavage efficiency given entry OmpT protease variant OmpT D97F (protein) STETLSFTPDNINADISLGTLSGKTKERVYLAEEGGRKVSQLDWKFNNAAIIKGAINWDLMPQISIGAAGWTTLGSRGGNMVDQDWMDSSNPGTWTFESRHPDTQLNYANEFDLNIKGWLLNEPNYRLGLMAGYQESRYSFTARGGSYIYSSEEGFRDDIGSFPNGERAIGYKQRFKMPYIGLTGSYRYEDFELGGTFKYSGWVESSDNDEHYDPGKRITYRSKVKDQNYYSVAVNAGYYVTPNAKVYVEGAWNRVTNKKGNTSLYDHNNNTSDYSKNGAGIENYNFITTAGLKYTF
< 3%

// fetch relative cleavage efficiency given entry OmpT protease variant OmpT D97N (protein) STETLSFTPDNINADISLGTLSGKTKERVYLAEEGGRKVSQLDWKFNNAAIIKGAINWDLMPQISIGAAGWTTLGSRGGNMVDQDWMDSSNPGTWTNESRHPDTQLNYANEFDLNIKGWLLNEPNYRLGLMAGYQESRYSFTARGGSYIYSSEEGFRDDIGSFPNGERAIGYKQRFKMPYIGLTGSYRYEDFELGGTFKYSGWVESSDNDEHYDPGKRITYRSKVKDQNYYSVAVNAGYYVTPNAKVYVEGAWNRVTNKKGNTSLYDHNNNTSDYSKNGAGIENYNFITTAGLKYTF
< 3%
